Here the recorded melting point is given for each entry.

Worked set:
{"compound": "O=C1C=C(c2ccc(Cl)c(Cl)c2)C(=O)O1", "endpointValue": "112 °C"}
{"compound": "Cc1cc(Nc2cncc(Nc3ccc(Cl)c(OCCN(C)C)c3)n2)n[nH]1", "endpointValue": "145 to 147 °C"}

Problem: Which measured melting point value corresponds to `CCCc1nc2c(c(C)c(C)n3nnnc23)n1CC(C)(C)N` ?
Result: 154 to 156 °C

Problem: Which measured melting point value corresponds to `COC(=O)Cc1ccsc1-c1ccccc1` ?
Result: 29 to 31 °C

Problem: Which measured melting point value corresponds to CC(=O)OC(C(Oc1ccc(Cl)cc1)n1ccnc1)C(C)(C)C (stereo unspecified) ?
Result: 81 to 91 °C

Problem: Which measured melting point value corresponds to O=C(NCC1CC1)c1ccc(F)c2c1CC(N(CCCc1c[nH]c3ccc(F)cc13)C1CCC1)CO2 (stereo unspecified) ?
Result: 114 °C

Problem: Which measured melting point value corresponds to `O=Cc1cnc(Cl)c(Cl)c1` ?
Result: 65 °C

Ref: a melting point compilation (Tetko et al.; mined from patent text by program, amines drawn as free bases though some values may be those of a salt)
